MEASURE NAME: melting point

What does the data say about its melting point? Entry: Cc1cc(Oc2ccc(NS(=O)(=O)c3cc(Cl)cc(Cl)c3)cc2)c2cc(F)ccc2n1 238 to 240 °C

Any idea what its melting point is? The compound is COc1cc2nccc(Oc3ccc(NS(=O)(=O)c4cccc(-c5ccccc5)c4)cc3)c2cc1OC 197 to 200 °C

Which melting point is listed for Cc1cc(Oc2ccc(NS(=O)(=O)C3CC3)c(F)c2)c2cc(F)ccc2n1 ? 189 to 190 °C

Using the record for Cc1cc(Oc2ccc(NS(=O)(=O)c3ccccc3)cc2)c2cc(F)ccc2n1 , report its melting point. 207 to 208 °C

Field request: melting point | item: COc1cc2nccc(Oc3ccc(NS(=O)(=O)c4cc(Cl)c(C)cc4OC)cc3)c2cc1OC 236 to 238 °C

For COc1cc2c(Oc3ccc(NS(=O)(=O)c4cccc(-c5ccccc5)c4)cc3F)ccnc2cc1OCCCN1CCOCC1 , what is its reported melting point? 210 to 212 °C

Suppose we examine the compound CCOc1ccc(S(=O)(=O)Nc2ccc(Oc3ccnc4cc(OC)c(OC)cc34)cc2F)cc1C ; what melting point value has been reported? 158 to 160 °C

So what does the record say about melting point for COc1cc2c(Oc3ccc(NS(=O)(=O)c4ccccc4OC(F)(F)F)cc3F)ccnc2cc1OCCN1CCOCC1 ? 185 to 187 °C

Any idea what its melting point is? The compound is COc1cc2nccc(Oc3ccc(NS(=O)(=O)c4ccc(Br)cc4OC(F)(F)F)c(F)c3)c2cc1OC 227 to 229 °C

Value lookup for melting point; key = COc1cc2nccc(Oc3ccc(NS(=O)(=O)c4ccc(Br)c(Cl)c4)c(C)c3)c2cc1OC 212 to 213 °C

Param item = COc1cc2nccc(Oc3ccc(NS(=O)(=O)c4ccc(OCc5c(C)noc5C)cc4)cc3)c2cc1OC ; retrieve measured melting point. 188 to 190 °C

# lookup: melting point of COc1cc2c(Oc3ccc(NS(=O)(=O)c4ccc(Cl)cc4F)cc3F)ccnc2cc1OCCN1CCOCC1 212 to 214 °C

Recorded melting point for COc1cc2c(Oc3ccc(NS(=O)(=O)c4cc(F)ccc4F)cc3F)ccnc2cc1OCCN1CCOCC1 , please? 169 to 173 °C

Request the reported melting point associated with COc1cc2nccc(Oc3ccc(NS(=O)(=O)c4cccc5ccccc45)cc3F)c2cc1OC 118 to 120 °C

Find the recorded melting point belonging to COc1cc(C)c(C)cc1S(=O)(=O)Nc1ccc(Oc2cc(C)nc3c(C(F)(F)F)cccc23)c(F)c1 and report it. 230 to 232 °C

Which melting point value belongs to COc1cc2nccc(Oc3ccc(NS(=O)(=O)c4cccc(-c5ccccc5)c4)c(F)c3)c2cc1OC ? 193 to 195 °C

Fill blank: measured melting point of the compound Cc1cc(Oc2ccc(NS(=O)(=O)c3cccc(C(F)(F)F)c3)c(F)c2)c2cc(F)ccc2n1 is ____. 150 to 152 °C

###

MEASURE NAME: melting point

Query (compound): Cc1cc(Oc2ccc(NS(=O)(=O)c3ccc(Cl)s3)cc2)c2cc(F)ccc2n1 ; field requested: melting point 170 to 172 °C

Using the record for COc1cc2nccc(Oc3ccc(NS(=O)(=O)c4ccccc4C)c(F)c3)c2cc1OC , report its melting point. 218 to 220 °C

// lookup melting point for COc1cc2nccc(Oc3ccc(NS(=O)(=O)c4ccccc4OC(F)(F)F)cc3)c2cc1OC 222 to 223 °C

For Cc1cc(Oc2ccc(NS(=O)(=O)c3ccc(Br)cc3C(F)(F)F)cc2)c2cc(F)ccc2n1 , what is its reported melting point? 191 to 193 °C

Query (compound): Cc1cc(Oc2ccc(NS(=O)(=O)c3cc(Cl)ccc3Cl)c(F)c2)c2cccc(C(F)(F)F)c2n1 ; field requested: melting point 207 to 209 °C

Form field: reported melting point of COc1cc2nccc(Oc3ccc(NS(=O)(=O)c4ccc5c(c4)CC(=O)N5C)cc3OC)c2cc1OC 150 to 152 °C

If you can, please state the reported melting point value of Cc1cc(Oc2ccc(NS(=O)(=O)c3cc(Cl)cc(Cl)c3)c(F)c2)c2cccc(C(F)(F)F)c2n1 . 181 to 183 °C

Note: attention shifts to another entry.
Consider the compound shown here: COc1cc2nccc(Oc3ccc(NS(=O)(=O)c4ccc(-c5cnco5)s4)c(F)c3)c2cc1OC What is its recorded melting point? 206 to 208 °C
